Readings of emission maximum for the listed compounds
measurement.description: solvent given as SMILES
measurement.context: in CN(C)C=O
quantity: emission maximum (nm)

1. O=P1(c2ccccc2)C(c2ccc(N(c3ccccc3)c3ccccc3)cc2)=Cc2ccccc21 (stereo not given); 566
2. CN(C)c1ccc(/C=C/c2ccc(-c3nnc(-c4ccc(-c5cc6ccccc6s5)cc4)o3)cc2)cc1; 401
3. O=c1c(Nc2ccccc2)c([O-])c1=[NH+]c1ccccc1; 502
4. Fc1cc(-c2nc(-c3ccccc3)nc(-c3ccccc3)n2)ccc1-n1c2ccccc2c2c3c(ccc21)C1(c2ccccc2-c2ccccc21)c1ccccc1-3; 533.56
5. Oc1ccccc1/N=C/c1ccccc1Oc1ccccc1; 418

---

Readings of emission maximum for the listed compounds
measurement.description: solvent given as SMILES
measurement.context: in C1COCCO1
quantity: emission maximum (nm)

1) CCCCCCCCC1(CCCCCCCC)c2cc(-c3ccc(C(F)(F)F)cc3)ccc2-c2ccc(N(c3ccc(-n4c5ccccc5c5ccccc54)cc3)c3ccc4c(c3)C(CCCCCCCC)(CCCCCCCC)c3cc(-c5ccc(C(F)(F)F)cc5)ccc3-4)cc21; 434
2) COC(=O)c1ccc(/C=C2\C=C(c3ccc(OC)c(OC)c3)NC2=O)cc1; 574
3) CC(=O)c1c2c(cc3c(N(C)C)cccc13)CCC2; 534
4) N#Cc1ccc2[nH]ccc2c1; 348

---

measurement.description: solvent given as SMILES
measurement.context: in CCO
Readings of emission maximum for the listed compounds
quantity: emission maximum (nm)

1. CN(C)c1ccc2c3c(ccc2c1)CCCC3=O; 495
2. Cc1ccccc1-c1c2ccc(=[N+]3CCOCC3)cc-2oc2cc(N3CCCCC3)ccc12; 582
3. CC[N+](CC)=c1ccc2nc3c(cc(NCCC(=O)NC(C)C(=O)OC)c4ccccc43)oc-2c1 (configuration not stated); 672
4. CNc1cc2nc3cc(Br)c(Br)cc3nc2cc1NC; 542
5. O=c1oc2ccccc2cc1-c1ccc(-c2cc3ccccc3oc2=O)cc1; 426
6. Cc1cc(-c2nnc(-c3ccccc3)o2)ccc1-n1c2ccccc2c2ccccc21; 445
7. COc1ccc(-c2csc(/C(C#N)=N\Nc3ccc(C#N)cc3)n2)cc1; 508
8. CN(C)c1ccc2c(c1)-c1ccccc1C2=O; 592
9. CN(C)c1ccc(/C=C/C=C/c2nc3ccccc3s2)cc1; 560
10. CCOC(=O)CCCCCn1c2ccc(OC)cc2c(=O)c2cc3c(cc21)c(=O)c1cc(OC)ccc1n3CCCCCC(=O)OCC; 592
11. c1cc2ccc3ccc(-n4c5ccccc5c5ccccc54)c4ccc(c1)c2c34; 398
12. CC(C)(C)NC1=C2C=CC=[N+]2[B-](F)(F)n2cccc21; 494

---

measurement.description: solvent given as SMILES
measurement.context: in C1CCOC1
quantity: emission maximum (nm)

1) Cc1nn(-c2ccccc2)c(C2=NN(c3ccc(Br)cc3)[C@@H](c3ccccc3)[C@@H]2c2ccccc2)c1C#N; 483
2) CC(C)(C)c1ccc(C2=CC(c3ccccc3)=[N+]3C2=Nc2c(-c4ccc(C(C)(C)C)cc4)cc(-c4ccccc4)n2[B-]3(F)F)cc1; 681
3) COC(=O)c1ccc(C2=C3C=CC(C)=[N+]3[B-](F)(F)n3c(C)ccc32)cc1; 536
4) CCN(CC)c1ccc(-c2nc3c(nc2-c2ccc([B-](F)(c4c(C)cc(C)cc4C)c4c(C)cc(C)cc4C)cc2)c2ccccc2n3C)cc1; 497.22
5) Cn1cccc1-c1ccc(C#N)cc1; 383
6) c1cc2c3c(c1)-c1cccc4ccn(c14)B3n1ccc3cccc-2c31; 387
7) CCCCCCCCCc1c2ccccc2cc2c1oc1c3c(c4ccccc4c12)-c1c(c2oc4cc5ccccc5cc4c2c2ccccc12)OCO3; 416
8) F[B-]1(F)n2c(c3cccc4cccc2c43)=Nc2ccc3ccccc3[n+]21; 508
